Data origin: patent US10479780B2

Target: human Src enzyme (Homo sapiens)
Construct: purchased Carna Biosciences, Inc. 08-173
Sequence (P12931 whole entry): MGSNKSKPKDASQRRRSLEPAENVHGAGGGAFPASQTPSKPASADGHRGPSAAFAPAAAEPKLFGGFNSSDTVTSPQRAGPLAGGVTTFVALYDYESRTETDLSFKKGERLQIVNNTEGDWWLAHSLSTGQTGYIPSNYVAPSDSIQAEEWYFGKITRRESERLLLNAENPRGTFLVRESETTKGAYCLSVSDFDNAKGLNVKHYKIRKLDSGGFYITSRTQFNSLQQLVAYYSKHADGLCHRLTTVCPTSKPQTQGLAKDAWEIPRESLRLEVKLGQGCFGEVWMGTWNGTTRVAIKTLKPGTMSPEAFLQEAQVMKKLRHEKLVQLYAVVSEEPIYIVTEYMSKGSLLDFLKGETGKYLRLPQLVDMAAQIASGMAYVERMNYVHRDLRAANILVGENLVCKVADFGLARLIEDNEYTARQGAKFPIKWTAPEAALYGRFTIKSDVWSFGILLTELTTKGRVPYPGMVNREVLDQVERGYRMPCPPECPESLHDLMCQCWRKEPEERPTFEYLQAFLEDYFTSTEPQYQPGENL
Assay: Src enzyme inhibitory activity (time-resolved fluorometry, biotinylated peptide phosphorylation)
Assay type: biochemical
Conditions: read-out: SRC_IC50
pIC50: −log10 of the molar value.
readout.name: pIC50

These solved cases illustrate the format of a correct answer.
Cc1cc(-n2ncc(C(=O)c3cc4cc(OC5CCN(C6CC6)CC5)c(Br)cc4[nH]3)c2N)ccc1Oc1ccccc1F = 6.34
Cc1cc(Oc2c(F)cccc2F)ncc1-n1ncc(C(=O)c2cc3cc(OC4CCN(C(C)C)CC4)c(Cl)cc3[nH]2)c1N = 7.82
Cc1cc(Oc2ccccc2F)ccc1-n1ncc(C(=O)c2cc3cc(OC4CCN(C(C)C)CC4)c(N4CCOCC4)cc3[nH]2)c1N = 8.74
Cc1cc(Oc2c(F)cccc2F)ncc1-n1ncc(C(=O)c2cc3cc(F)c(N4C(=O)NC5(CCC5)C4=O)cc3[nH]2)c1N = 6.80

1: Cc1cc2cc(C(=O)c3cnn(-c4cnc(Oc5c(F)cccc5F)cc4C)c3N)[nH]c2cc1NS(=O)(=O)CC(=O)NC(C)C
2: Cc1cc(Oc2c(F)cccc2F)ncc1-n1ncc(C(=O)c2cc3cc(OCC(F)F)c(N4C(=O)NC5(CCN(C6COC6)C5)C4=O)cc3[nH]2)c1N (stereo not drawn)
Q. Which record would sort first by descending pIC50, 1 or 2 ? Select an item and report its label.
A. 1
(1: 7.57, 2: 6.80)

###

Target: human Src enzyme (Homo sapiens)
Construct: purchased Carna Biosciences, Inc. 08-173
Assay: Src enzyme inhibitory activity (time-resolved fluorometry, biotinylated peptide phosphorylation)
Type: biochemical
Conditions: biotinylated peptide phosphorylation, read-out: SRC_IC50
readout.name: IC50 (µM)

Some entries whose results are on file:
Cc1cc2cc(C(=O)c3cnn(-c4ccc(Oc5ccccc5F)cc4C)c3N)[nH]c2cc1N1C(=O)NC2(CCCCC2)C1=O [Example 5-1-409] = 0.16
Cc1cc2cc(C(=O)c3cnn(-c4cnc(Oc5c(F)cccc5F)cc4C)c3N)[nH]c2cc1N1C(=O)N[C@@H](CO)C1=O [Example 5-1-451] = 0.041
Cc1cc(Oc2ccccn2)ccc1-n1ncc(C(=O)c2cc3cc(F)c(NS(=O)(=O)CCCF)cc3[nH]2)c1N [Example 4-2-017] = 0.026
Cc1cc(Oc2c(F)cccc2Cl)ncc1-n1ncc(C(=O)c2cc3cc(F)c(NS(=O)(=O)C4CC4)cc3[nH]2)c1N [Example 4-2-046] = 0.23
Cc1cc(Oc2ccccc2F)cc(F)c1-n1ncc(C(=O)c2cc3cc(F)c(NS(=O)(=O)CCCF)cc3[nH]2)c1N [Example 4-2-019] = 0.072
Cc1cc(Oc2ccc(F)cc2)ncc1-n1ncc(C(=O)c2cc3cc(F)c(NS(C)(=O)=O)cc3[nH]2)c1N [Example 4-2-039] = 0.084
Cc1cc(Oc2ccccc2F)ncc1-n1ncc(C(=O)c2cc3cc(OCC(F)F)c(NS(C)(=O)=O)cc3[nH]2)c1N [Example 4-24-028] = 0.037
Cc1ccccc1Oc1cc(C)c(-n2ncc(C(=O)c3cc4cc(F)c(NS(C)(=O)=O)cc4[nH]3)c2N)cn1 [Example 4-2-036] = 0.06
Cc1cc(Oc2ccccc2F)ncc1-n1ncc(C(=O)c2cc3cc(F)c(N4CC5(CCOCC5)NS4(=O)=O)cc3[nH]2)c1N [Example 5-1-413] = 0.09
COc1ccnc(S(=O)(=O)Nc2cc3[nH]c(C(=O)c4cnn(-c5ccc(Oc6ccccc6F)cc5C)c4N)cc3cc2F)c1 [Example 5-1-512] = 0.25

I: Cc1cc(Oc2ccccc2F)ccc1-n1ncc(C(=O)c2cc3cc(OC(F)F)c(N4C(=O)C(C)(C)NC4=S)cc3[nH]2)c1N [Example 4-23-039]
II: COc1ccnc(S(=O)(=O)Nc2cc3[nH]c(C(=O)c4cnn(-c5cnc(Oc6c(F)cccc6F)cc5C)c4N)cc3cc2OCC(F)F)c1 [Example 5-1-569]
Q. Lab note: check whether I or II shows the higher recorded IC50. Answer by stating the label of the chosen item.
A. II
(II: 0.23 µM, I: 0.06 µM)
